test: qHTS assay to test for compound auto fluorescence at 460 nm (blue) in HepG2 cell free culture (AID 720685); conditions: Cell-free culture medium, blue autofluorescence 405/460 nm; series mostly up to 46 µM
The source made the active and inactive calls. Calls come from the whole dose curve; as a rule, active = well fitted curve in the direction sought with a large enough effect in the repeat runs; inconclusive = weak or mixed curves; inactive = flat fitted curve, though single readings scatter. Starred links: 1 amine or outer side, 2 acyl side, 3 side chain; linkers in the order of their positions; H or OH if unused. Positions of bridges follow the written chain, without caps; N, C: chain ends. Non-standard residues stand in square brackets, D forms with d. Residues, ends and D or L forms follow the SMILES beside them. *: point of attachment. X5 = NC1=N[C@@H]([C@H](N[*:1])C(=O)[*:2])C[C@H](O)N1; ΔAla(Z-3-ureido) = NC(=O)N/C=C(\N)C(=O)O; β3hOrn = NCCC[C@H](N)CC(=O)*; X2 = CC[C@H](C)CCCCC(=O)*; Dab = NCC[C@H](N)C(=O)O; Dap = NC[C@H](N)C(=O)O
quantity.name: outcome

Past entries and their recorded results:
# molecule, outcome
data = [
    ("CCc1ccc(S(=O)(=O)O)cc1", "inactive"),
    ("COC(=O)CCC(=O)CN", "inactive"),
    ("O=C(O[C@H]1CN2CCC1CC2)N1CCc2ccccc2[C@@H]1c1ccccc1", "inactive"),
    ("CN(C)CCCN1c2ccccc2C(C)(C)c2ccccc21", "inactive"),
    ("CN[C@@H]1[C@H](O[C@H]2[C@H](O[C@H]3[C@H](O)[C@@H](O)[C@H](N=C(N)N)[C@@H](O)[C@@H]3N=C(N)N)O[C@@H](C)[C@]2(O)CO)O[C@@H](CO)[C@H](O)[C@H]1O", "inactive"),
    ("CCOC(=O)c1c[nH]c2cc(OCC(C)C)c(OCC(C)C)cc2c1=O", "inactive"),
    ("COc1cc2c(cc1OC)CC(=O)N(CCCN(C)C[C@H]1Cc3cc(OC)c(OC)cc31)CC2", "inactive"),
    ("CN(C)c1ccc(C(=C2C=CC(=[N+](C)C)C=C2)c2c(O)c(S(=O)(=O)[O-])cc3cc(S(=O)(=O)O)ccc23)cc1", "inactive"),
]

Entry CC[C@H](C)CCCCC(=O)N[C@@H](CCN)C(=O)N[C@H](C(=O)N[C@@H](CCN)C(=O)N[C@H]1CCNC(=O)[C@@H]([C@H](C)O)NC(=O)[C@H](CCN)NC(=O)[C@H](CCN)NC(=O)[C@H](CC(C)C)NC(=O)[C@@H](CC(C)C)NC(=O)[C@H](CCN)NC1=O)[C@@H](C)O (X2-[Dab]T[Dab][Dab][Dab][dL]L[Dab][Dab][dT]; lactam 4-C) — recorded outcome = inactive

Recorded result, `Clc1cc(Cl)c(OCC#CI)cc1Cl` , outcome: inactive

Summary for this molecule, `CCC(=O)OCC(=O)[C@@]1(OC(=O)CC)[C@H](C)C[C@H]2[C@@H]3CCC4=CC(=O)C=C[C@]4(C)[C@@]3(F)[C@@H](O)C[C@@]21C` : outcome is inactive

// field: outcome; key: `C[C@H]1C[C@@H]2[C@H]([C@@H](O)C[C@@]3(C)[C@H]2CC[C@]3(O)C(=O)COC(=O)CCC(=O)O)[C@@]2(C)C=CC(=O)C=C12` ; value = inactive

The molecule listed as CC1CCC(NC(=O)N(CCCl)N=O)CC1 (stereo not given) has a reported outcome of inactive

Measured outcome, `O=C(O)c1ccc(NC(=O)[C@H](Cc2ccc(O)cc2)NC(=O)c2ccccc2)cc1` : inactive

The molecule NCCC[C@H](N)CC(=O)N[C@H]1CNC(=O)[C@H]([C@H]2C[C@H](O)NC(N)=N2)NC(=O)/C(=C/NC(N)=O)NC(=O)[C@H](CO)NC(=O)[C@H](CO)NC1=O (β3hOrn-[Dap]SS[ΔAla(Z-3-ureido)][X5]; lactam 1-C) showed outcome equal to inactive
